# TEST_METHOD_NOTES: recombinant barcode read abundance after kanamycin selection (control-corrected) (log10(CPM+1)); higher = more efficient recombination; sequences stand for … in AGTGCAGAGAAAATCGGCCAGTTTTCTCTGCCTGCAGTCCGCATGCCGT…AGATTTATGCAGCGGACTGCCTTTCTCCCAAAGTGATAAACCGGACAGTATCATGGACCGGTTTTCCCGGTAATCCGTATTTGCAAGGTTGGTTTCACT; site = the 11-nt target;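 also: IS621 recombinase and bridge RNA in Escherichia coli cells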
Listed below: recombinant barcode read abundance (log10) values for each entry.
Number only, please.

Give the measured recombinant barcode read abundance (log10) of GCGCCTCCTTGGGTTCTAACCTGTTGCAT (site GCGTCTCCTAT) .
0.0165

Turning now to a further sequence:
Give the measured recombinant barcode read abundance (log10) of TAGGACTCTTGGGTTCTAACCTGTTGCAT (site TAGGACTCTAT) .
1.79
